Numbers sourced from patent US20240270821A1.

# target.of.assay: T1, human GIP receptor (human) (UniProt P48546)
# T1 sequence (looked up): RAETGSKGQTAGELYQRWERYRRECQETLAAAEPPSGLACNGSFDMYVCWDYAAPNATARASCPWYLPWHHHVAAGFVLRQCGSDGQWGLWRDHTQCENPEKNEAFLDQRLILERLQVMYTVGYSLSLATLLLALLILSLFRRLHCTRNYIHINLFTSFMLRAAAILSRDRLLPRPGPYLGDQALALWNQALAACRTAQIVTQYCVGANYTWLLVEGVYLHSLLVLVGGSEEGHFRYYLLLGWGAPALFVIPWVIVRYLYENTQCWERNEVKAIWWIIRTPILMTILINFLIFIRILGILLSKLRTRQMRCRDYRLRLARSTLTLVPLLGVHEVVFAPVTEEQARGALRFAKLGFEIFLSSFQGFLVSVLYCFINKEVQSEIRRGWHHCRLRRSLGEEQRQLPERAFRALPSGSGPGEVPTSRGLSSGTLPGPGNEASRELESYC
# assay.text: cell-based or functional assay
Non-standard residues stand in square brackets, D forms with d. No end group written: not given here. αMeL = CC(C)C[C@](C)(N)C(=O)O; Aib = CC(C)(N)C(=O)O
# key: entry, value: Relative cAMP EC50
Dear colleague, please return just the value in pM, with no unit written.

Answered examples (5):
binder: YXQGTXTSDXSILLDKKAQXAFIEYLEEGGPSSGAPPPSGGGE (non-natural residues; Lys acylated C18 diacid; C-terminal amide; synthetic construct; SITE 2: note = 2-Aminoisobutyric Acid; SITE 6: note = alpha-methyl-2-fluoro-L-phenylalanine; SITE 10: note = 3-(4-Pyridyl)-L-alanine; SITE 17: note = Lysine is chemically modified through conjugation of the epsilon-amino group of the Lysine side chain with (gamma-Glu)2-CO-(CH2)1) [Example 619]
result.unit: pM
Relative cAMP EC50: 68.5

binder: YXQGTFTSDFSXXLDKKAQXAFIEYLLEGGPSSXAPPPGGS (not fully specified; synthetic construct; SITE 2: note = 2-Aminoisobutyric Acid; SITE 12: note = L-ornithine; SITE 13: note = alpha-methyl-leucine; SITE 17: note = Lysine is chemically modified through conjugation of the epsilon-amino group of the Lysine side chain with (gamma-Glu)2-CO-(CH2)16-CO2H; SITE 20: note = 2-Am) [Example 770]
result.unit: pM
Relative cAMP EC50: 244

binder: YXQGTFTSDFSXXLDKKAQXAFIEYLLEAGPSSGAPPPSEG (not fully specified; synthetic construct; SITE 2: note = 2-Aminoisobutyric Acid; SITE 12: note = L-ornithine; SITE 13: note = alpha-methyl-leucine; SITE 17: note = Lysine is chemically modified through conjugation of the epsilon-amino group of the Lysine side chain with (2-[2-(2-Amino-ethoxy)-ethoxy]-acetyl)2-(gamma-Glu)) [Example 72]
result.unit: pM
Relative cAMP EC50: 202

binder: Y[Aib]QGTFTSDYSI[αMeL]LDKQAAKQFVEWLIA[Aib]GPSSGEPPPGTG-NH2 (not fully specified (residue 20)) [Example 336]
result.unit: pM
Relative cAMP EC50: 306

binder: YXQGTXTSDXXILLDXKAQXXFIEYLIEGGPSSGEPPPEGAEE (non-natural residues; Lys acylated C18 diacid; C-terminal amide; synthetic construct; SITE 2: note = 2-Aminoisobutyric Acid; SITE 6: note = alpha-methyl-2-fluoro-L-phenylalanine; SITE 10: note = 3-(4-Pyridyl)-L-alanine; SITE 11: note = alpha-methyl-L-serine; SITE 16: note = L-ornithine; SITE 17: note = Lysine is chemically modified through conjugation of the epsi) [Example 604]
result.unit: pM
Relative cAMP EC50: 161

Consider the record given below.
Req: State the recorded Relative cAMP EC50 for this entry: YXQGTFTSDXSQXLDKKAQXAFIEYLIEXGESSGAPPPSGE (Aib, 4Pal, αMeL, αMe4Pal; K acylated AEEA-γGlu-C18 diacid; amide; synthetic construct; SITE 2: note = 2-Aminoisobutyric Acid; SITE 10: note = 3-(4-Pyridyl)-L-alanine; SITE 13: note = alpha-methyl-leucine; SITE 17: note = Lysine is chemically modified through conjugation of the epsilon-amino group of the Lysine side chain with (2-[2-(2-Amino-ethoxy)-ethoxy]-acetyl)) [Example 227]
Resp: 170
